- MEASUREMENT TARGET: hGLP-1R (Homo sapiens)
- Sequence (P43220 24-463): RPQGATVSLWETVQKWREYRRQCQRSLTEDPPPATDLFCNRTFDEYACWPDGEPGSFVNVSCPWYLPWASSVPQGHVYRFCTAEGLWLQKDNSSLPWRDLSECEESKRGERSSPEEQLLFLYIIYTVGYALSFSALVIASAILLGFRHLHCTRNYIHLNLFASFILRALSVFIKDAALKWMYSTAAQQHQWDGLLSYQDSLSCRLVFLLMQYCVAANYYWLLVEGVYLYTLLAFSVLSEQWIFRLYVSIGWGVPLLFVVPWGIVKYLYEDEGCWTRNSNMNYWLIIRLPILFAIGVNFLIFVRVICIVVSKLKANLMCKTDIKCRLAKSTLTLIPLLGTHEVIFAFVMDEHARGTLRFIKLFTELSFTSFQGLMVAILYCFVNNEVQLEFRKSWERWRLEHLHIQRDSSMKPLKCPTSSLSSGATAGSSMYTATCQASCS
- PROCEDURE SUMMARY: Functional cAMP activity in the presence of 1% HSA
- Type: cell-based
- TEST CONDITIONS: read-out: cAMP Rel EC50, hGLP-1R
Starred links: 1 amine or outer side, 2 acyl side, 3 side chain; linkers in the order of their positions; H or OH if unused. Non-standard residues stand in square brackets, D forms with d. Groups on a side chain read outwards from the residue. *: point of attachment. C18 diacid = O=C(O)CCCCCCCCCCCCCCCCC(=O)*; αMePhe(2-F) = C[C@](N)(Cc1ccccc1F)C(=O)O; γGlu = O=C(O)[C@H](CCC(=O)[*:2])N[*:1]; αMe4Pal = C[C@](N)(Cc1ccncc1)C(=O)O; αMeY = C[C@](N)(Cc1ccc(O)cc1)C(=O)O; 4Pal = N[C@@H](Cc1ccncc1)C(=O)O; αMeL = CC(C)C[C@](C)(N)C(=O)O; Orn = NCCC[C@H](N)C(=O)O; AEEA = NCCOCCOCC(=O)O; Aib = CC(C)(N)C(=O)O
MEASURED METRIC: EC50 (nM)
// return numeric value only (unit: nM, not printed)

>>> reading("H-Y[Aib]QGT[αMePhe(2-F)]TSD[4Pal]SI[αMeL]LD[Orn]K([AEEA-γGlu-C18 diacid])AQ[αMe4Pal][Orn]FI[dE][αMeY]LIEGGPSSGDPPPEGE-NH2 [Example 727]")
24.1

Give its EC50 value. Item: H-Y[Aib]QGT[αMePhe(2-F)]TSD[4Pal]SILLD[Orn]K([γGlu-γGlu-C18 diacid])AQ[Aib][Orn]FIE[αMeY]LEEGGPSSGAPPPSGTGE-NH2 [Example 674]
17.3

// query: H-Y[Aib]QGTFTSDFS[Orn][αMeL]LDKK([AEEA-γGlu-C18 diacid])AQ[Aib]AFIE[αMeY]LIEGGPSSGAPPPSGS-NH2 [Example 839]
60.6
